tested on: Mice; assay: Standard test for evaluation of inhalation anesthetics (mice in rotating drum; AC50, LC50, anesthetic index); format: in vivo; details: 10 minutes exposure, calculated from LC50 and AC50
Listed below: Anesthetic index AI (LC50/AC50) values for each entry.

Completed entries (count: 2):
Compound: FC(Cl)OC1(F)C(F)(F)C1(F)Br (stereo not shown) [Example 10]
Anesthetic index AI (LC50/AC50): ~ 2

Compound: FC(F)OC1(F)C(F)(F)C1(F)Cl (stereo not shown) [Example 7]
Anesthetic index AI (LC50/AC50): > 1

[in] Please look up its Anesthetic index AI (LC50/AC50): FC(Cl)OC1(F)C(F)(F)C1(F)Cl (stereo not shown) [Example 8]
[out] 4-5

[in] Please look up its Anesthetic index AI (LC50/AC50): FC(F)OC1(F)C(F)(F)C1(F)Br (stereo not shown) [Example 9]
[out] > 4

* * *

system: Mice; assay: Standard test for evaluation of inhalation anesthetics (mice in rotating drum; AC50, LC50, anesthetic index); assay type: in vivo; details: 10 minutes exposure, when two figures are given, the actual parameter lies between them
Experimental readout: LC50 (minimum concentration required to kill 50% of the mice)

[in] Please look up its LC50 (minimum concentration required to kill 50% of the mice): FC(F)OC1(F)C(F)(F)C1(F)Br (stereo not shown)
[out] > 4 % volume

* * *

tested on: Mice; experiment: Standard test for evaluation of inhalation anesthetics (mice in rotating drum; AC50, LC50, anesthetic index); type: in vivo; conditions: 10 minutes exposure, when two figures are given, the actual parameter lies between them
Listed below: LC50 (minimum concentration required to kill 50% of the mice) values for each entry.

Completed entries (count: 2):
Compound: FC(F)OC1(F)C(F)(F)C1(F)Cl (stereo not drawn)
Tgt: Mice
Reported measurement: > 10 % volume

Compound: FC(Cl)OC1(F)C(F)(F)C1(F)Cl (stereo not drawn)
Tgt: Mice
Reported measurement: 8-10 % volume

From here, focus on the item given below.
[in] Please look up its LC50 (minimum concentration required to kill 50% of the mice): FC(Cl)OC1(F)C(F)(F)C1(F)Br (stereo not drawn)
[out] 6-8 % volume
